tgt: N-type Ca^2+ Channel (Homo sapiens)
Construct: host or cells: IMR-32 cells differentiated with dibutyryl cAMP and bromodeoxyuridine
measurement-protocol: Measurement of N-type Ca2+ channel blocking potencies in IMR-32 cells using the fluorescent Ca2+ indicator Indo-1
Format: cell-based
condition-context: read-out: IMR 32% of Blockade @

- compound: "CC(C)C[C@@H](C(=O)N[C@@H](Cc1ccc(OCc2ccccc2)cc1)C(=O)NCCc1ccccn1)N(C)C (relative stereo)"
  IC50 [µM]: 5.9

* * *

Catalogue of IMR 32 % of Blockade @ 10 μM values
tgt: N-type Ca^2+ Channel (Homo sapiens, UniProt Q00975)
Construct: host or cells: IMR-32 cells differentiated with dibutyryl cAMP and bromodeoxyuridine
Sequence (Q00975 whole entry): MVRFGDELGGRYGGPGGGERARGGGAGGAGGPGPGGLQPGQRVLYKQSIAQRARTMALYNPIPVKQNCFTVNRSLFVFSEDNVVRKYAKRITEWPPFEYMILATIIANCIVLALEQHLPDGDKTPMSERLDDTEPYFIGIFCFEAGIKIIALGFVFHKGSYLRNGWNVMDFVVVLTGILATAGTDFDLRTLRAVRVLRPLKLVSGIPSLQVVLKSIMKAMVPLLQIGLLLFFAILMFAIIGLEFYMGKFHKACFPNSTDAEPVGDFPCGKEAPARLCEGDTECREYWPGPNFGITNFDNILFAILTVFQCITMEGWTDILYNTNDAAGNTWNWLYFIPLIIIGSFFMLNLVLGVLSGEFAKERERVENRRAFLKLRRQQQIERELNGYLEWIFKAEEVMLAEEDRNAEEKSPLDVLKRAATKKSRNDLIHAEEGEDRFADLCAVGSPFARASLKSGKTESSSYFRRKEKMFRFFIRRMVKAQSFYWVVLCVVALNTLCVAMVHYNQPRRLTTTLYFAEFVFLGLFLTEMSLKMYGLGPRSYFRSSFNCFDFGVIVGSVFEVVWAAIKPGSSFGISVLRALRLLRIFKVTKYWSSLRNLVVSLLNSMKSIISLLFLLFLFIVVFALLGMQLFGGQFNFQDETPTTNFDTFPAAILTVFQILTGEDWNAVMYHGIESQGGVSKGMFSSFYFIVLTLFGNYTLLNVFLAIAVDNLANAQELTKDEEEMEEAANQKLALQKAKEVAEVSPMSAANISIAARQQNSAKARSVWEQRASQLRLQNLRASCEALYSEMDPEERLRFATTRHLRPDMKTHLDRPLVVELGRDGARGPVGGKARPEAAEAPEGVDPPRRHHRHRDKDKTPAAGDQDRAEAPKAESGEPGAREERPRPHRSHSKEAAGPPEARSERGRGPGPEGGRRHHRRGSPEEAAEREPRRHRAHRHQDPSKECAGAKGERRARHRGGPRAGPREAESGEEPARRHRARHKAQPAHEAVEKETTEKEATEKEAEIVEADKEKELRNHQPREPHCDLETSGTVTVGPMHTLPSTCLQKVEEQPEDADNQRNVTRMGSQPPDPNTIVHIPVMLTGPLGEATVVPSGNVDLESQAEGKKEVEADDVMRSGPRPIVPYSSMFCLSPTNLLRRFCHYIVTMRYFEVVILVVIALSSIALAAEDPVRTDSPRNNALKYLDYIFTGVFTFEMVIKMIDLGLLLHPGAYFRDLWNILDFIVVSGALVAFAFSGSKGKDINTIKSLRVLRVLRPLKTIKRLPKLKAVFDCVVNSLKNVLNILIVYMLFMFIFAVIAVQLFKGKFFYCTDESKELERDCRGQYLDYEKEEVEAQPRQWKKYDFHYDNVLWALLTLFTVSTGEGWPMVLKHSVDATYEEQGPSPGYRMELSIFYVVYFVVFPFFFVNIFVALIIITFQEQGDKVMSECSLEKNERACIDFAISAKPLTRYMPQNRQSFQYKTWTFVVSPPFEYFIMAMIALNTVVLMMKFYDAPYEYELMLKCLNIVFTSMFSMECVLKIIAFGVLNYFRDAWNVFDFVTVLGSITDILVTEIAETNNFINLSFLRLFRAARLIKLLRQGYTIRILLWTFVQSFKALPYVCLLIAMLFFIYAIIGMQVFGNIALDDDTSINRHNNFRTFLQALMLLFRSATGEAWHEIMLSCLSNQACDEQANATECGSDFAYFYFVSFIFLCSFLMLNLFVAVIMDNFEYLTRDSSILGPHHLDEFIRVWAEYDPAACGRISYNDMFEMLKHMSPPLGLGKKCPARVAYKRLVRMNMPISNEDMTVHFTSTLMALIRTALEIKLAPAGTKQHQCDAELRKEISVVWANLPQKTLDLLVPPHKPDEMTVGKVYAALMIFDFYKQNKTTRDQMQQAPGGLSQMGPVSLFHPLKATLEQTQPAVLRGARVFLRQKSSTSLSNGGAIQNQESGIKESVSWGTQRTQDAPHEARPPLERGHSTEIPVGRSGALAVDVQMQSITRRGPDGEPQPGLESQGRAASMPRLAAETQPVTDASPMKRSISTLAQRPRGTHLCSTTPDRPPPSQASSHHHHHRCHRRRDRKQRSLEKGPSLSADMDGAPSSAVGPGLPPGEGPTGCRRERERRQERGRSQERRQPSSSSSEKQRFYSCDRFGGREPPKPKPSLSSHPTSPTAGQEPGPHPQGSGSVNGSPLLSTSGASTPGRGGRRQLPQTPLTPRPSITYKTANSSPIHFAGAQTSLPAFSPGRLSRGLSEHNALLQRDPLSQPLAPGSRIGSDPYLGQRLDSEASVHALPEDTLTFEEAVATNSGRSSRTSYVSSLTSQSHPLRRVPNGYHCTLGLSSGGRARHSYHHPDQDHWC
Sequence (P54284 whole entry partner): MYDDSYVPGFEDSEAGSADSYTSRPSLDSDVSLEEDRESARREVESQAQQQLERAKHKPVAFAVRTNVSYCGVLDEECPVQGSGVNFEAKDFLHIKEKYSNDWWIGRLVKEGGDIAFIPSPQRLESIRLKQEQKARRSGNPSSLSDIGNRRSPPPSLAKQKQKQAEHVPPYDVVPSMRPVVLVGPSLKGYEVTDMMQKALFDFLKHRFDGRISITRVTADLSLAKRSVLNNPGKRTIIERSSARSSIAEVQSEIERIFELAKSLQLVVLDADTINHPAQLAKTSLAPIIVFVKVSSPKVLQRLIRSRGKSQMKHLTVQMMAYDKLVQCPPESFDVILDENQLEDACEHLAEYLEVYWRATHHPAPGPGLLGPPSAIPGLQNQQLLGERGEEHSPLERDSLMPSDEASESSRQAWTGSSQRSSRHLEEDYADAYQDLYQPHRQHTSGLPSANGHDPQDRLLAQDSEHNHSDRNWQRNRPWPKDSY
Sequence (P54289 25-946 partner limits assumed): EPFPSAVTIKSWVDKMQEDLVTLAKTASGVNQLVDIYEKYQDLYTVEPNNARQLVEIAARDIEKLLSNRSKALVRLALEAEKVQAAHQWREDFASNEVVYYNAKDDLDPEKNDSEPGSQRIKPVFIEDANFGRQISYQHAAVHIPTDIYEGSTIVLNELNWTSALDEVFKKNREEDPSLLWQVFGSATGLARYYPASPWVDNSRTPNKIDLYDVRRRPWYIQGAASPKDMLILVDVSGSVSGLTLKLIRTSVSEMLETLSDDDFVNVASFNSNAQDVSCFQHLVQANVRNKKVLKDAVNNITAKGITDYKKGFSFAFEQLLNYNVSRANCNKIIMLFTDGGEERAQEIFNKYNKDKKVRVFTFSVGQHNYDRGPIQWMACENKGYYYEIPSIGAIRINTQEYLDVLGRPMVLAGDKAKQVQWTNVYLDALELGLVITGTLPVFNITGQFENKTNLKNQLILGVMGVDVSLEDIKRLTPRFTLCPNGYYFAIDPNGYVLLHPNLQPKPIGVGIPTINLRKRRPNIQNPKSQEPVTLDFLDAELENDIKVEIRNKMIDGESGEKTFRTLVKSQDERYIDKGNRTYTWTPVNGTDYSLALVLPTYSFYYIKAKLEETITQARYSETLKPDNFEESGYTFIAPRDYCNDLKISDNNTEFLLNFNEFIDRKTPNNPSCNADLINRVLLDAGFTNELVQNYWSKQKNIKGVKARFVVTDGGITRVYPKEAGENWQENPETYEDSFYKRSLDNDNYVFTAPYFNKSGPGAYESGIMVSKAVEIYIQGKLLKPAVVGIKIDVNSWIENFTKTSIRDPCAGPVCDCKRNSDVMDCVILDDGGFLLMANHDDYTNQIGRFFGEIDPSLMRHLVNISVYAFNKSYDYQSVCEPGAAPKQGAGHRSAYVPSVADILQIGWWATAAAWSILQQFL
Sequence (P54289 947-1103 partner limits assumed): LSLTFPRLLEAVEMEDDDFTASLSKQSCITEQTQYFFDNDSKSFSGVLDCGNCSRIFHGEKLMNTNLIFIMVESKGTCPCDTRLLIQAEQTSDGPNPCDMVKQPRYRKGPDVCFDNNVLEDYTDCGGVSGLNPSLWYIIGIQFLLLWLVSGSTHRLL
measurement-protocol: Measurement of N-type Ca2+ channel blocking potencies in IMR-32 cells using the fluorescent Ca2+ indicator Indo-1
Type: cell-based
condition-context: 10 μM; IMR-32 cells, 5 μM nitrendipine
readout: IMR 32 % of Blockade @ 10 μM

- compound: "CC(C)C[C@@H](C(=O)N[C@@H](Cc1ccc(OCc2ccccc2)cc1)C(=O)NCCN1CCCCC1)N(C)Cc1ccc(C(C)(C)C)cc1 (relative stereo) [Example 15]"
  readout: "IMR 32 % of Blockade @ 10 μM"
  result: "80%"
- compound: "CC(C)C[C@@H](C(=O)N[C@@H](Cc1ccc(OCc2ccccc2)cc1)C(=O)NC1CCN(Cc2ccccc2)CC1)N(C)C (relative stereo) [Example 5]"
  readout: "IMR 32 % of Blockade @ 10 μM"
  result: "81%"
- compound: "CC(C)C[C@@H](C(=O)N[C@@H](Cc1ccc(OCc2ccccc2)cc1)C(=O)NCCN1CCCCC1)N(C)C (relative stereo) [Example 3]"
  readout: "IMR 32 % of Blockade @ 10 μM"
  result: "70%"
- compound: "CC(C)C[C@@H](C(=O)N[C@@H](Cc1ccc(OCc2ccccc2)cc1)C(=O)N1CCN(C)CC1)N(C)C1CCCCC1 (relative stereo) [Example 24]"
  readout: "IMR 32 % of Blockade @ 10 μM"
  result: "84%"
- compound: "CC(C)CCN(C)C(CC(C)C)C(=O)NC(Cc1ccc(OCc2ccccc2)cc1)C(=O)N1CCN(Cc2ccccc2)CC1 (stereo not drawn) [Example 10]"
  readout: "IMR 32 % of Blockade @ 10 μM"
  result: "80%"
- compound: "CC(C)CCN(C)[C@@H](CC(C)C)C(=O)N[C@@H](Cc1ccc(OCc2ccccc2)cc1)C(=O)N1CCN(C)CC1 (relative stereo) [Example 12]"
  readout: "IMR 32 % of Blockade @ 10 μM"
  result: "88%"

* * *

tgt: N-type Ca^2+ Channel (Homo sapiens)
Construct: host or cells: IMR-32 cells differentiated with dibutyryl cAMP and bromodeoxyuridine
measurement-protocol: Measurement of N-type Ca2+ channel blocking potencies in IMR-32 cells using the fluorescent Ca2+ indicator Indo-1
Format: cell-based
condition-context: 10 μM; IMR-32 cells, 5 μM nitrendipine
Catalogue of IMR 32 % of Blockade @ 10 μM values
readout: IMR 32 % of Blockade @ 10 μM (%)

- compound: "CC(C)C[C@@H](C(=O)N[C@@H](Cc1ccc(OCc2ccccc2)cc1)C(=O)N1CCN(C)CC1)N(C)Cc1ccc(C(C)(C)C)cc1 (relative stereo) [Example 18]"
  measurement-unit: "%"
  readout-number: 95
- compound: "CN[C@@H](CC(C)C)C(=O)N[C@@H](Cc1ccc(OCc2ccccc2)cc1)C(=O)N1CCN(Cc2ccccc2)CC1 (relative stereo) [Example 43]"
  measurement-unit: "%"
  readout-number: 96
- compound: "CC(C)C[C@H](NCc1ccccc1)C(=O)N[C@@H](Cc1ccc(OCc2ccccc2)cc1)C(=O)OC(C)(C)C (relative stereo) [Example 33]"
  measurement-unit: "%"
  readout-number: 95
- compound: "CC(C)CCN(C)[C@@H](CC(C)C)C(=O)N[C@@H](Cc1ccc(OCc2ccccc2)cc1)C(=O)NCCN1CCCCC1 (relative stereo) [Example 9]"
  measurement-unit: "%"
  readout-number: 89
- compound: "CC(C)C[C@@H](C(=O)N[C@@H](Cc1ccc(OCc2ccccc2)cc1)C(=O)N1CCCCC1)N(C)C1CCCCC1 (relative stereo) [Example 20]"
  measurement-unit: "%"
  readout-number: 87
- compound: "CC(C)C[C@@H](C(=O)N[C@@H](Cc1ccc(OCc2ccccc2)cc1)C(=O)N1CCN(Cc2ccccc2)CC1)N(C)C (relative stereo) [Example 4]"
  measurement-unit: "%"
  readout-number: 94
- compound: "CC(C)C[C@@H](C(=O)N[C@@H](Cc1ccc(OCc2ccccc2)cc1)C(=O)N1CCCCC1)N(C)C (relative stereo) [Example 2]"
  measurement-unit: "%"
  readout-number: 92
- compound: "CC(C)C[C@@H](C(=O)N[C@@H](Cc1ccc(OCc2ccccc2)cc1)C(=O)N1CCN(Cc2ccccc2)CC1)N(C)Cc1ccc(C(C)(C)C)cc1 (relative stereo) [Example 16]"
  measurement-unit: "%"
  readout-number: 66
- compound: "CC(C)CCN(C)[C@@H](CC(C)C)C(=O)N[C@@H](Cc1ccc(OCc2ccccc2)cc1)C(=O)NC1CCN(Cc2ccccc2)CC1 (relative stereo) [Example 11]"
  measurement-unit: "%"
  readout-number: 89
